target: HLA-A02.01 (human); experiment: pMHC-I complex dissociation at 37 C, 125I-b2m, half-life
Measurement type: Stability (T1/2 (h))
Answer in h, number only, no unit symbol.

Guide cases for Stability (T1/2 (h)), answers given:
Binder: CLADVLLSV (also called APC, AVEW)
Stability (T1/2 (h)): 24
//
Binder: IQLQDKFEHL (also called EGFR: SEPT14)
Stability (T1/2 (h)): 0.2
//
Binder: LATEKSRWS (also called BRAF, V600E)
Stability (T1/2 (h)): 0

Here is another binder to look at.
Asked: Any idea what Stability (T1/2 (h)) was measured for PLSDLLLEM (also called ESR1, Y537S) ?
Given back: 2.7
